molecular target: DRB1*0101 (DR1) (Homo sapiens, UniProt P01903+P01911, A100R/D57E/F55L/F60I/F76Y/I96L/L162R/M171V/P40L/Q125E/R42F/V115G/Y59C); construct: used as sources of human HLA class II molecules; endogenous in cells; host or cells: LG2 (EBV-transformed homozygous B cell line); experiment: Class II peptide-binding assay, DR1; details: read-out: DR1 nM; Table VIII, In IC50 Format;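 note: competition assay: unlabeled test peptides inhibit binding of a radiolabeled probe peptide to purified DR, with half-maximal inhibition taken as an approximate dissociation constant Kd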
Ends that are not written are not given here.
Consider the following sequences; for each one, report its IC50.
Write it as a number; the unit nM goes unstated.

Lab note: measured IC50 of EALVRQGLAKVAYVYKPNN [NASE 101-] was 2.2

Documented IC50 of DTVKLMYKGQPMTFRLLLV [Peptide 866.01] : 23
